# credit: patent US20240299484A1

experimentalProtocol: Treadmill exercise / endurance test
Format: in vivo, Swiss Albino mice
reportedConditions: Day −28 minus Day −0
Listed here: items and their measured Distance Increase over Day −0.

smilesStr: CC(C)C[C@H](NC(=O)[C@@H](N)CC(C)C)C(=O)O
Distance Increase over Day −0 (m): 289.62
--
smilesStr: Cn1c(=O)[nH]c2ncn(C)c2c1=O
Distance Increase over Day −0 (m): 284.62
--
smilesStr: N=C(N)NCCC[C@H](N)C(=O)O
Distance Increase over Day −0 (m): 275.12
--
smilesStr: NC(=O)NCCC[C@H](N)C(=O)O
Distance Increase over Day −0 (m): 273.5
